Source listed as PubChem BioAssay (NCI).

Test system: SF-268 CNS
protocol-text: NCI tumour cell line growth inhibition, 48 h
Reported TGI values follow for various compounds

compound: CCCN=C1CC(C)Nc2ccccc2N1 (configuration not stated)
comparison-symbol: >
TGI [µM]: 100
--
compound: CC(C)(C)OC(=O)NCCCCC(NC(=O)OCc1ccccc1)C(N)=O (configuration not stated)
comparison-symbol: >
TGI [µM]: 100
--
compound: CSC1=Nc2ccccc2N(C)c2c1c(-c1ccccc1)nn2C
comparison-symbol: >
TGI [µM]: 100
--
compound: CC(=O)OCC1OC(O[C@@H]2C[C@H]3C(C)(C)[C@H](OC(C)=O)CC[C@]3(C)[C@H]3CCC4=C([C@@H](C)C[C@@H](O)[C@H](O)C(C)(C)O)CC[C@@]4(C)[C@@]32C)C(O)C(O)C1O (some centres not stated)
comparison-symbol: =
TGI [µM]: 27.7
--
compound: CCCCCCCCCCCCCCCC(=O)NCC(COP(=O)([O-])OCC[N+](C)(C)C)OCC (configuration not stated)
comparison-symbol: =
TGI [µM]: 27
--
compound: CCOC(=O)c1cc(=C2\CCN(CC(C)CC)C2=S)/c(=C(/O)CC)[nH]1 (configuration not stated)
comparison-symbol: =
TGI [µM]: 46.3
--
compound: COc1cc2oc(-c3ccc(O)cc3)c(OC3OC(C)C(O)C(O)C3O)c(=O)c2c(O)c1OC (configuration not stated)
comparison-symbol: >
TGI [µM]: 100
